# assayed_system: IKZF2 Helios (Homo sapiens, UniProt Q96SW2+Q9UKS7)
# Sequence (Q9UKS7 whole entry): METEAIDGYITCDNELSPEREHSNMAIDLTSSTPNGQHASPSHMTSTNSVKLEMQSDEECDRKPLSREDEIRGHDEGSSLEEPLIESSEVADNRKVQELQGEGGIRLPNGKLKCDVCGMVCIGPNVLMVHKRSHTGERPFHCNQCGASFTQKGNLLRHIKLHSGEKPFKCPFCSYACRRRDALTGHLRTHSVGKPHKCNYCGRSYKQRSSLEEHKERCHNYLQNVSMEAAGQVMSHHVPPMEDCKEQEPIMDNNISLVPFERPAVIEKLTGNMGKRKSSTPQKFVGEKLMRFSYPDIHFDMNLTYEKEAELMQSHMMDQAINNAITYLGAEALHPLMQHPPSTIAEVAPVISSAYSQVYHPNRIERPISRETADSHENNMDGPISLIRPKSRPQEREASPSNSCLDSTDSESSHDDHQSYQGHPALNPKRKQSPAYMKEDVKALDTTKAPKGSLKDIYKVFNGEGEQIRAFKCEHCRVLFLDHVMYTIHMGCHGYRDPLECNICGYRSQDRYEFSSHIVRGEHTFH
# Sequence (Q96SW2 whole entry): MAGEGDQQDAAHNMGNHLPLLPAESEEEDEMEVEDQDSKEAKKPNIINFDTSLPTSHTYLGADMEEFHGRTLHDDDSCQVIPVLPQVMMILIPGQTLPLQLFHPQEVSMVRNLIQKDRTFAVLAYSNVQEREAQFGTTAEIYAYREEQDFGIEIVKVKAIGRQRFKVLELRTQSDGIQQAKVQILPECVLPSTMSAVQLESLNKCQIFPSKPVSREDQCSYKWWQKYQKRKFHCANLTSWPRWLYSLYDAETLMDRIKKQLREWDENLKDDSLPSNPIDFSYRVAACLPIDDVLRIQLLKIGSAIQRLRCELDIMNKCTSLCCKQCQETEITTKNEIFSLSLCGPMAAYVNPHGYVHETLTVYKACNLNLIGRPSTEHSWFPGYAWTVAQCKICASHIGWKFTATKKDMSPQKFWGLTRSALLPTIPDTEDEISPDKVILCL
# Sequence (Q16531 whole entry partner): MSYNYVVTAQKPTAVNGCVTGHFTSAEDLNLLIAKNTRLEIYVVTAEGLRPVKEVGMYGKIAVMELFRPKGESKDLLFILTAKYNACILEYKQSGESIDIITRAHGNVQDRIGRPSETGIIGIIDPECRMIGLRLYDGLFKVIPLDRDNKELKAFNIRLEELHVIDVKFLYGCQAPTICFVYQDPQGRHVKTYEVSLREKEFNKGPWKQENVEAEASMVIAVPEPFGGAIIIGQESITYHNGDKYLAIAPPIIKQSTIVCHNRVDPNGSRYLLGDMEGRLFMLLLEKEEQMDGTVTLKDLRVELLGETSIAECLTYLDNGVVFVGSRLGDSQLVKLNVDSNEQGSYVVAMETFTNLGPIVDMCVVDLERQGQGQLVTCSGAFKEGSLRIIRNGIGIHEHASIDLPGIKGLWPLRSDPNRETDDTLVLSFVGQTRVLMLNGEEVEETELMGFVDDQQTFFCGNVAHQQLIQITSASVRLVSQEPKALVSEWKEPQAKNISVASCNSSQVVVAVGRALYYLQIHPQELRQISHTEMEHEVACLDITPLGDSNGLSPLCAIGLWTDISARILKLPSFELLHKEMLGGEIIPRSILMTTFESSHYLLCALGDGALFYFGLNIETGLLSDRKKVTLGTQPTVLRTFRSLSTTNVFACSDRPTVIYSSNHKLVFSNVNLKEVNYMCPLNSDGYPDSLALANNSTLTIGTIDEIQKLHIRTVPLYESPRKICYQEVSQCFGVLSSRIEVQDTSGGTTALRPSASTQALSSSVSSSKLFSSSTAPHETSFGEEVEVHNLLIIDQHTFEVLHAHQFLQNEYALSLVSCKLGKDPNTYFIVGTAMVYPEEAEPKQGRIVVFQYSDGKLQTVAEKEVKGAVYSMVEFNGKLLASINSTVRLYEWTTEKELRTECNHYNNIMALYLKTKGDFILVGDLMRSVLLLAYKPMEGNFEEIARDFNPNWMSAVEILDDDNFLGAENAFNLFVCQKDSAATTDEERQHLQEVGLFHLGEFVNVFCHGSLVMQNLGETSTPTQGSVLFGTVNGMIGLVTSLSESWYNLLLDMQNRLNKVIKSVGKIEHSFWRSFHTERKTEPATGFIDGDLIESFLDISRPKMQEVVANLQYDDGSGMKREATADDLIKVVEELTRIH
# assay_notes: Jurkat Cellular Degradation Assay
# Type: cell-based
# Parameters: fluorescently labelled antibodies against Helios, Ikaros and Aiolos; endogenous in cells; host or cells: Jurkat cells
# applied_conditions: Table E summary; Jurkat Cellular Degradation Assay (A-1)

[
  {
    "compound": "CO[C@H]1C[C@H](Oc2c(C)cc(-c3ccc(-c4cn(C5CCC(=O)NC5=O)c(=O)o4)c(F)c3)nc2N)C1 (relative stereo)",
    "reading_unit": "%",
    "IKZF2** Helios max % deg. observed": 92
  },
  {
    "compound": "COC1CCN(Cc2ccc(-c3ccc(-c4cn(C5CCC(=O)NC5=O)c(=O)o4)c(F)c3)nc2N)CC1 (stereo not shown)",
    "reading_unit": "%",
    "IKZF2** Helios max % deg. observed": 91
  },
  {
    "compound": "O=C1CCC(n2cc(-c3ccccc3)oc2=O)C(=O)N1 (stereo not shown) [Comparative Compound A, reference compound]",
    "reading_unit": "%",
    "IKZF2** Helios max % deg. observed": 27
  },
  {
    "compound": "O=C1CCC(n2cc(-c3ccc(Br)cc3F)oc2=O)C(=O)N1 (stereo not shown) [Comparative Compound B, reference compound]",
    "reading_unit": "%",
    "IKZF2** Helios max % deg. observed": 11
  },
  {
    "compound": "Cc1cc(-c2ccc(-c3cn(C4CCC(=O)NC4=O)c(=O)o3)c(F)c2)nc(N)c1COC1CCOCC1 (stereo not shown)",
    "reading_unit": "%",
    "IKZF2** Helios max % deg. observed": 92
  },
  {
    "compound": "CC1(C)Cc2cc(-c3ccc(-c4cn(C5CCC(=O)NC5=O)c(=O)o4)c(F)c3)nc(N)c2O1 (stereo not shown)",
    "reading_unit": "%",
    "IKZF2** Helios max % deg. observed": 89
  },
  {
    "compound": "Cc1cc(-c2ccc(-c3cn(C4CCC(=O)NC4=O)c(=O)o3)c(F)c2)nc(N)c1NCC1CCOCC1 (stereo not shown)",
    "reading_unit": "%",
    "IKZF2** Helios max % deg. observed": 92
  }
]

###

# assayed_system: IKZF3 Aiolos (Homo sapiens, UniProt Q96SW2+Q9UKT9)
# Sequence (Q9UKT9 whole entry, one chain of several): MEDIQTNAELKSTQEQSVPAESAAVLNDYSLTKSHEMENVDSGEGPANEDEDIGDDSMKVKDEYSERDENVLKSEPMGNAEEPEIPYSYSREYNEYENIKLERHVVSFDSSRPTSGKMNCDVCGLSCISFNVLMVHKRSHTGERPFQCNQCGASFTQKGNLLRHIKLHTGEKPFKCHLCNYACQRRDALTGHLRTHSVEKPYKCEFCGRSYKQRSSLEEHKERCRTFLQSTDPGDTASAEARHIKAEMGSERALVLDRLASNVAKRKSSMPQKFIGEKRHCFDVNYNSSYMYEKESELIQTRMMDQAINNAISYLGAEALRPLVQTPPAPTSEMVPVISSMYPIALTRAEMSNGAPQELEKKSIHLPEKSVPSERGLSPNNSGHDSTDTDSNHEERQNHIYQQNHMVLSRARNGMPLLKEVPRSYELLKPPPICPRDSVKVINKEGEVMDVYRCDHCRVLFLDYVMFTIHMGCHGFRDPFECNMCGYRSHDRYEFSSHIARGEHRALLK
# assay_notes: Jurkat Cellular Degradation Assay
# Assay type: cell-based
# Design: fluorescently labelled antibodies against Helios, Ikaros and Aiolos; endogenous in cells; host or cells: Jurkat cells
# applied_conditions: Jurkat cells, 24 h; 50% reduction of protein vs DMSO alone
The following molecules are shown together with reported DC50 values.

[
  {
    "molecule": "COC1CCN(Cc2ccc(-c3ccc(-c4cn(C5CCC(=O)NC5=O)c(=O)o4)c(F)c3)nc2N)CC1 (stereo not shown)",
    "assayed_system": "IKZF3 Aiolos (Homo sapiens, UniProt Q96SW2+Q9UKT9)",
    "operator": "=",
    "DC50, µM": 3.01
  },
  {
    "molecule": "Cc1cc(-c2ccc(-c3cn(C4CCC(=O)NC4=O)c(=O)o3)c(F)c2)nc(N)c1COC1CCOCC1 (stereo not shown)",
    "assayed_system": "IKZF3 Aiolos (Homo sapiens, UniProt Q96SW2+Q9UKT9)",
    "operator": ">",
    "DC50, µM": 10
  },
  {
    "molecule": "CC1(C)Cc2cc(-c3ccc(-c4cn(C5CCC(=O)NC5=O)c(=O)o4)c(F)c3)nc(N)c2O1 (stereo not shown)",
    "assayed_system": "IKZF3 Aiolos (Homo sapiens, UniProt Q96SW2+Q9UKT9)",
    "operator": "=",
    "DC50, µM": 0.6
  },
  {
    "molecule": "Cc1cc(-c2ccc(-c3cn(C4CCC(=O)NC4=O)c(=O)o3)c(F)c2)nc(N)c1NCC1CCOCC1 (stereo not shown)",
    "assayed_system": "IKZF3 Aiolos (Homo sapiens, UniProt Q96SW2+Q9UKT9)",
    "operator": "=",
    "DC50, µM": 9.49
  }
]
